Ref: patent US20250270287A1

Target: T1, BMP-10 (UniProt O95393 317-424)
T1 sequence (looked up): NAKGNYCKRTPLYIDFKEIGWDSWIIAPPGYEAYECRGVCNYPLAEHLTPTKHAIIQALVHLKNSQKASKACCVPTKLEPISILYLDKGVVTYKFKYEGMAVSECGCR
Assay: SPR (Biacore 8K), Fc protein captured on anti-human IgG, ligand injected
pKd: −log10 of the molar value.
Use 10 as the dividing line for pKd, with the line itself on the 1 side and lower values as 0.

Q) In plain terms: is recorded pKd at least 10 for ActRIIB-A6 (SEQ ID NO: 124) chimera-Fc protein (Fc fusion, Tested as chimera-Fc protein; not shown: linker (if any) and Fc domain) GRGEAETRECIYYNANWELERTNQSGLERCEGEQDKRLHCYASWRNSSGTIELVKKGCWLDDFNCYDRQECVATKDSPEVYFCCCEGNFCNERFTHLPEAGGPEVTYEPPPTAPT ?
A) 1

Q) In plain terms: is recorded pKd at least 10 for ActRIIB-B5 (SEQ ID NO: 114) chimera-Fc protein (Fc fusion, Tested as chimera-Fc protein; not shown: linker (if any) and Fc domain) GRGEAETRECIYYNANWELERTNQSGLERCEGEQDKRLHCYASWRNSSGTIELVKKGCWLDDFNCYDRQECVEKEENPQVYFCCCEGNFCNERFTHLPEAGGPEVTYEPPPTAPT ?
A) 1

Q) In plain terms: is recorded pKd at least 10 for ActRIIA-B1B7 (SEQ ID NO: 101) chimera-Fc protein (Fc fusion, Tested as chimera-Fc protein; also called ActRIIA-B1β7; not shown: linker (if any) and Fc domain) GAILGRSETQECIYYNANWEKDRTNQTGVEPCYGDKDKRRHCFATWKNISGSIEIVKQGCWLDDINCYDRTDCVEKKDSPEVYFCCCEGNMCNERFTHLPEMEVTQPTS ?
A) 0

Q) In plain terms: is recorded pKd at least 10 for ActRIIA-A6 (SEQ ID NO: 108) chimera-Fc protein (Fc fusion, Tested as chimera-Fc protein; not shown: linker (if any) and Fc domain) GAILGRSETQECLFFNANWEKDRTNQTGVEPCYGDKDKRRHCFATWKNISGSIEIVKQGCWLDDINCYDRTDCVEKEENPQVYFCCCEGNMCNEKFSYFPEMEVTQPTS ?
A) 0

Q) In plain terms: is recorded pKd at least 10 for ActRIIA-A8 (SEQ ID NO: 110) chimera-Fc protein (Fc fusion, Tested as chimera-Fc protein; not shown: linker (if any) and Fc domain) GAILGRSETQECLFFNANWEKDRTNQTGVEPCYGDKDKRRHCFATWKNISGSIEIVKQGCWLDDINCYDRTDCVEKKDSPEVYFCCCEGNMCNEKFSYFPEAGGPEVTYEPPPTAPT ?
A) 1

Q) In plain terms: is recorded pKd at least 10 for ActRIIA-B3 (SEQ ID NO: 97) chimera-Fc protein (Fc fusion, Tested as chimera-Fc protein; not shown: linker (if any) and Fc domain) GAILGRSETQECLFFNANWEKDRTNQTGVEPCYGDKDKRLHCYASWRNSSGSIEIVKQGCWLDDINCYDRTDCVEKKDSPEVYFCCCEGNMCNEKFSYFPEMEVTQPTS ?
A) 1
